Target: sRAGE binding to β-amyloid (Homo sapiens, UniProt Q15109)
Construct: extracellular domain can be isolated by proteolysis of RAGE to generate soluble RAGE (sRAGE) comprised of the V and C domains
Sequence (Q15109 23-342 limits assumed): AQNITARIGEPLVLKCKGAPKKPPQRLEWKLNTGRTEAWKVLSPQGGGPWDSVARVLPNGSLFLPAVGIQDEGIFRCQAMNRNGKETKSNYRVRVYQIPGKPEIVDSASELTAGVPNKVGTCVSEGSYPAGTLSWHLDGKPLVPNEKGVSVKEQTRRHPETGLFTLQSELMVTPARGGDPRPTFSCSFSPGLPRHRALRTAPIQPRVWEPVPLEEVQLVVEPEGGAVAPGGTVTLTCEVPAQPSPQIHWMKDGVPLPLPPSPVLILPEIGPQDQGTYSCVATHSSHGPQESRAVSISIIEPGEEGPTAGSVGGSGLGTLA
Test: RAGE binding assay (ELISA), β-amyloid as the RAGE ligand
Conditions: compounds tested in hydrochloride salt form, concentration at which 50% signal has been inhibited
Procedure: The following assay method may be used to identify compounds of Formula (I) or pharmaceutically acceptable salts thereof which are useful as inhibitors of binding of physiological RAGE ligands, such as S100b and β-amyloid, to RAGE. […] 100 μL of complex is added to each well and incubation is allowed to proceed at rt for 1 h. […] The reaction is quenched with 10 μL of stop solution (0.5-1.0 N NaOH in 50% ethanol) and the absorbance is measured spectrophotometrically with a microplate reader at 405 nm. […]
Structures can show the parent of a compound that is named as a salt.
Listed below: IC50 values for each entry.
measured_parameter: IC50

compound: CCCCc1nnc(OC[C@H]2CN(C)CC[C@H]2O)cc1-c1ccc(OC2CCCCC2)cc1 (racemic) [Example 43, dihydrochloride]
measured_parameter: IC50
result: 830 nM

compound: CCCCc1nnc(C(=O)N[C@H]2CCN(C)C[C@H]2O)cc1-c1ccc(OC2CCCCC2)cc1 (racemic) [Example 112, dihydrochloride]
measured_parameter: IC50
result: 1470 nM

compound: CCCCc1nnc(OCC2(O)CCN(C)CC2)cc1-c1ccc(OCc2ccccc2)cc1 [Example 11, dihydrochloride]
measured_parameter: IC50
result: 3230 nM

compound: CCCCc1nnc(OC2CCN(C)CC2)cc1-c1ccc(OC2CCCCC2)cc1 [Example 14, dihydrochloride]
measured_parameter: IC50
result: 820 nM

compound: CCCCc1nnc(O[C@H]2C[C@H]3CC[C@@H](C2)N3C)cc1-c1ccc(OC2CCCCC2)cc1 [Example 27, dihydrochloride]
measured_parameter: IC50
result: 2520 nM

compound: CCCCc1nnc(C(=O)NC[C@H]2CCCN2CC)cc1-c1ccc(OC2CCCCC2)cc1 [Example 91, dihydrochloride]
measured_parameter: IC50
result: 1390 nM

compound: CCCCc1nnc(OC2CCN(C)CC2)cc1-c1ccc(OCC2CCC(C(=O)N(C)C)CC2)cc1 (stereo not shown) [Example 56, dihydrochloride]
measured_parameter: IC50
result: 2430 nM

compound: CCCCc1nnc(OC2CCN(CCc3nnn(C)n3)CC2)cc1-c1ccc(OC2CCCCC2)cc1 [Example 21, dihydrochloride]
measured_parameter: IC50
result: 1530 nM

compound: CCCCc1nnc(OC2CCN(C)CC2)cc1-c1ccc(OC2CCCCC2)c(O)c1 [Example 74, dihydrochloride]
measured_parameter: IC50
result: 1160 nM

compound: CCCCc1nnc(OCC2CCN(C)CC2)cc1-c1ccc(OCc2ccccc2)cc1
measured_parameter: IC50
result: 1230 nM

compound: CN1CCC(Oc2cc(-c3ccc(OC4CCCCC4)cc3)c(C3CCCCC3)nn2)CC1 [Example 60, dihydrochloride]
measured_parameter: IC50
result: 1830 nM

compound: CCCCc1nnc(OC2CCN(C)CC2)cc1-c1ccc(OC2CCCCC2)c(-c2nnnn2C)c1 [Example 70, dihydrochloride]
measured_parameter: IC50
result: 2940 nM

compound: CCCCc1nnc(C(=O)NCC2(OC)CCN(C)CC2)cc1-c1ccc(OC2CCCCC2)cc1 [Example 89, dihydrochloride]
measured_parameter: IC50
result: 2010 nM

compound: CCCCc1nnc(OC2CCN(C)CC2)cc1-c1ccc(OC2CCCCC2)c(N2CCCS2(=O)=O)c1 [Example 75, dihydrochloride]
measured_parameter: IC50
result: 2850 nM

compound: CCCCc1nnc(OC2CCN(C)CC2)cc1-c1ccc(OCc2ccc(Cl)cc2)cc1 [Example 50, dihydrochloride]
measured_parameter: IC50
result: 1960 nM

compound: CCCCc1nnc(OC[C@H]2CN(C)CC[C@@H]2O)cc1-c1ccc(OC2CCCCC2)cc1 (racemic) [Example 47, dihydrochloride]
measured_parameter: IC50
result: 2500 nM

compound: CN1CCC(Oc2cc(-c3ccc(OC4CCCCC4)cc3)c(C3CCC3)nn2)CC1 [Example 61, dihydrochloride]
measured_parameter: IC50
result: 3720 nM

compound: CCCCc1nnc(C(=O)N[C@H]2CN3CCC2CC3)cc1-c1ccc(OC2CCCCC2)cc1 [Example 86, dihydrochloride]
measured_parameter: IC50
result: 1020 nM

compound: CCCCc1nnc(C(=O)NCC2CCN(C)CC2)cc1-c1ccc(OC2CCCCC2)cc1 [Example 103, dihydrochloride]
measured_parameter: IC50
result: 1110 nM

compound: CCCCc1nnc(OCC2CN(C)C2)cc1-c1ccc(OCc2ccccc2)cc1 [Example 9, dihydrochloride]
measured_parameter: IC50
result: 3140 nM

compound: CCCCc1nnc(OC[C@H]2CCN(C)C[C@H]2OC)cc1-c1ccc(OC2CCCCC2)cc1 (racemic) [Example 35, dihydrochloride]
measured_parameter: IC50
result: 740 nM

compound: CCCCc1nnc(OC2CCN(C)CC2)cc1-c1ccc(OCc2ccccc2)cc1 [Example 1, dihydrochloride]
measured_parameter: IC50
result: 1090 nM

compound: CCCCc1nnc(OCC2CCN(C)C2)cc1-c1ccc(OCc2ccccc2)cc1 (stereo not shown) [Example 10, dihydrochloride]
measured_parameter: IC50
result: 1630 nM

compound: CCCCc1nnc(C(=O)N2CCO[C@H](CN(C)C)C2)cc1-c1ccc(OC2CCCCC2)cc1 [Example 98, dihydrochloride]
measured_parameter: IC50
result: 1620 nM

compound: CCCCc1nnc(C(=O)NC[C@@H](O)CN(C)C)cc1-c1ccc(OC2CCCCC2)cc1 [Example 88, dihydrochloride]
measured_parameter: IC50
result: 2460 nM

compound: CCCCc1nnc(C(=O)NC2(CO)CCN(C)C2)cc1-c1ccc(OC2CCCCC2)cc1 (stereo not shown) [Example 111, dihydrochloride]
measured_parameter: IC50
result: 2920 nM

compound: CCCCc1nnc(OC2CCN(C)CC2)cc1-c1ccc(OC2CCCCC2)c(OC)c1 [Example 73, dihydrochloride]
measured_parameter: IC50
result: 1040 nM

compound: CCCCc1nnc(OC2CCN(C)CC2)cc1-c1ccc(OC2CCCCC2)c(-c2cnn(CCOC)c2)c1 [Example 78, dihydrochloride]
measured_parameter: IC50
result: 1160 nM

----------
Reported values of pIC50 for individual entries
Target: sRAGE binding to S100b (Homo sapiens)
Construct: extracellular domain can be isolated by proteolysis of RAGE to generate soluble RAGE (sRAGE) comprised of the V and C domains
Test: RAGE binding assay (ELISA), S100b as the RAGE ligand
Conditions: compounds tested in hydrochloride salt form, concentration at which 50% signal has been inhibited
Experimental: The following assay method may be used to identify compounds of Formula (I) or pharmaceutically acceptable salts thereof which are useful as inhibitors of binding of physiological RAGE ligands, such as S100b and β-amyloid, to RAGE. […] 100 μL of complex is added to each well and incubation is allowed to proceed at rt for 1 h. […] The reaction is quenched with 10 μL of stop solution (0.5-1.0 N NaOH in 50% ethanol) and the absorbance is measured spectrophotometrically with a microplate reader at 405 nm. […]
pIC50: −log10 of the molar value. Structures can show the parent of a compound that is named as a salt.

molecule: CCCCc1nnc(OC2CCN(CCc3nnc(C)o3)CC2)cc1-c1ccc(OC2CCCCC2)cc1 [Example 20, dihydrochloride]
pIC50: 5.84

molecule: CCCCc1nnc(OC[C@H]2CCN(C)C[C@H]2O)cc1-c1ccc(OC2CCCCC2)cc1 (racemic) [Example 24, dihydrochloride]
pIC50: 5.58

molecule: CCCCc1nnc(OC2CCN(C)CC2)cc1-c1ccc(OCCC2CCCCC2)cc1 [Example 52, dihydrochloride]
pIC50: 6.19

molecule: CCCCc1nnc(C(=O)N[C@H]2CCN(C)C[C@H]2O)cc1-c1ccc(OC2CCCCC2)cc1 (racemic) [Example 112, dihydrochloride]
pIC50: 5.84

molecule: CCCCc1nnc(OC2CN3CCC2CC3)cc1-c1ccc(OC2CCCCC2)cc1 (stereo not shown) [Example 26, dihydrochloride]
pIC50: 5.68

molecule: CCCCc1nnc(OC2CCN(C)CC2)cc1-c1ccc(OCc2ccccc2)cc1 [Example 1, dihydrochloride]
pIC50: 6.02

molecule: CCCCc1nnc(OCC[C@@H]2CCCCN2C)cc1-c1ccc(OC2CCCCC2)cc1 [Example 33, dihydrochloride]
pIC50: 5.58

----------
In this section we review reported pIC50 values for a set of molecules.
biological target: sRAGE binding to S100b (Homo sapiens, UniProt Q15109); construct: extracellular domain can be isolated by proteolysis of RAGE to generate soluble RAGE (sRAGE) comprised of the V and C domains; assay: RAGE binding assay (ELISA), S100b as the RAGE ligand; details: compounds tested in hydrochloride salt form, concentration at which 50% signal has been inhibited
Sequence (Q15109 23-342 limits assumed): as above
pIC50: −log10 of the molar value. Where a name gives a salt, the structure may show the parent alone.
measured_parameter: pIC50

molecule: CCCCc1nnc(C(=O)N(C)C2CCN(C)CC2)cc1-c1ccc(OC2CCCCC2)cc1 [Example 114, dihydrochloride]
measured_parameter: pIC50
numeric_value: 5.97

molecule: CCCCc1nnc(OC[C@H]2CN(C)CC[C@@H]2O)cc1-c1ccc(OC2CCCCC2)cc1 (racemic) [Example 47, dihydrochloride]
measured_parameter: pIC50
numeric_value: 5.53

molecule: CCCCc1nnc(OC[C@H]2CCN(C)C[C@@H]2OC)cc1-c1ccc(OC2CCCCC2)cc1 (racemic) [Example 36, dihydrochloride]
measured_parameter: pIC50
numeric_value: 6.02

molecule: CCCCc1nnc(OC2CCN(C)CC2)cc1-c1ccc(OC2CCCCC2)c(-c2cnoc2)c1 [Example 72, dihydrochloride]
measured_parameter: pIC50
numeric_value: 5.77

molecule: CCCCc1nnc(O[C@@H]2CCN(C)C2)cc1-c1ccc(OC2CCCCC2)cc1 [Example 29, dihydrochloride]
measured_parameter: pIC50
numeric_value: 5.76

molecule: CCCCc1nnc(OC[C@H]2CCN(C)C[C@H]2OC)cc1-c1ccc(OC2CCCCC2)cc1 (racemic) [Example 35, dihydrochloride]
measured_parameter: pIC50
numeric_value: 6.13

molecule: CCCCc1nnc(OC2CCN(C)CC2)cc1-c1ccc(OC2CCCCC2)c(C(C)=O)c1
measured_parameter: pIC50
numeric_value: 5.83

molecule: CCCCc1nnc(OC2CCN(C)CC2)cc1-c1ccc(OC2CCCCC2)c(-c2nnnn2C)c1 [Example 70, dihydrochloride]
measured_parameter: pIC50
numeric_value: 5.66

molecule: CCCCc1nnc(OC2CCN(C)CC2)cc1-c1ccc(OC2CCCCC2)c(-c2cnn(C)c2)c1 [Example 69, dihydrochloride]
measured_parameter: pIC50
numeric_value: 6.14

molecule: CCCCc1nnc(O[C@H]2CC3C[C@@H](O)C(C2)N3C)cc1-c1ccc(OC2CCCCC2)cc1 (some centres unmarked) [Example 31, dihydrochloride]
measured_parameter: pIC50
numeric_value: 6.05

molecule: CCCCc1nnc(OCC2CN(C)CCO2)cc1-c1ccc(OC2CCCCC2)cc1 (centres unmarked) [Example 34, dihydrochloride]
measured_parameter: pIC50
numeric_value: 5.53

molecule: CCCCc1nnc(OC2CCN(C)CC2)cc1-c1ccc(OC2CCC(F)(F)CC2)cc1 [Example 19, dihydrochloride]
measured_parameter: pIC50
numeric_value: 6.19

molecule: CCCCc1nnc(C(=O)NC[C@H]2CCN(C)C[C@H]2F)cc1-c1ccc(OC2CCCCC2)cc1 (racemic) [Example 110, dihydrochloride]
measured_parameter: pIC50
numeric_value: 5.98

molecule: CCCCc1nnc(C(=O)NCC2=CCN(C)CC2)cc1-c1ccc(OC2CCCCC2)cc1 [Example 108, dihydrochloride]
measured_parameter: pIC50
numeric_value: 5.93

Attribution: patent US9045461B2
